# STUDY TARGET: GalNAc(b1-3)GalNAc
# TEST SUMMARY: glycan array binding signal (z-score within array); higher = stronger binding
# MEASUREMENT CONTEXT: glycan notation: IUPAC condensed, linker removed
This excerpt belongs to a sample that is enriched for the strongest signals.
Please provide measured glycan array binding signal (z-score) for the entries that follow.
The response must contain the number and no unit.

Per the records, this binder ( MpAFP NterminalRI GFP (Marinomonas primoryensis) (protein) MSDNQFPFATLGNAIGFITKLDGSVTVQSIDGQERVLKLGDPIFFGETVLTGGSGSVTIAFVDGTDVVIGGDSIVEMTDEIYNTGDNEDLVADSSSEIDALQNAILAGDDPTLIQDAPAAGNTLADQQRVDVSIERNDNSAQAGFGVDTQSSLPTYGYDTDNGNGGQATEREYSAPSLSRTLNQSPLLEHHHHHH ) has glycan array binding signal (z-score) equal to -0.576

Per the records, this binder ( XTP3-B-MRH2 (Homo sapiens), Q96DZ1 (protein) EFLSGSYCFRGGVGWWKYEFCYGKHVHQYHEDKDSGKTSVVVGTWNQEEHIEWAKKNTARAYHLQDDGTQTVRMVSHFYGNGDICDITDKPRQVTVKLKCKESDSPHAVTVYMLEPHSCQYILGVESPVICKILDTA ) has glycan array binding signal (z-score) equal to -1.03

Per the records, this binder ( Langerin K313I (Homo sapiens), Q9UJ71 (protein) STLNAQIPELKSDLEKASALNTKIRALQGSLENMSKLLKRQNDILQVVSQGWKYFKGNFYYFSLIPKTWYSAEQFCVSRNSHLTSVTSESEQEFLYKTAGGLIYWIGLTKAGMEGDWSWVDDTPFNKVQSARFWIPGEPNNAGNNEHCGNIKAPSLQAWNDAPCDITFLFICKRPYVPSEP ) has glycan array binding signal (z-score) equal to 3.83
